Ref: patent US20130225488A1

Exercise: state measured cAMP production with saturated glucagon peptide; test compound '1 nM' for each of the binders provided.
# Tested on: Human glucagon receptor (human, UniProt P47871 26-477)
# Experimental protocol: cell-based or functional assay
Where no end group is shown, it is not given here. [ ]: non-standard residue; d: D form. Ac3c = NC1(C(=O)O)CC1; Aib = CC(C)(N)C(=O)O
Please respond with the number in pmol/ml/µg prt and leave the unit unwritten.

Requested field: cAMP production with saturated glucagon peptide; test compound '1 nM'. Item: HXQGTXTSDXX (Aib at 2; α-Me-2F-Phe at 6; Bip(OMe) at 10; Bip(2Me) at 11) [Seq. ID. No. 29: H-Aib-QGT-(α-Me-2F-Phe)-TSD-Bip(OMe)-Bip(2Me)] 4

Requested field: cAMP production with saturated glucagon peptide; test compound '1 nM'. Item: H[Ac3c]QGTFTSD[Bip(OMe)][Bip(2Me)] [Seq. ID. No. 17: H-(ACP)-QGTFTSD-Bip(OMe)-Bip(2Me)] 0

Requested field: cAMP production with saturated glucagon peptide; test compound '1 nM'. Item: H[Aib]QGTFTSD[Bip(OMe)][Bip(2F)] [Seq. ID. No. 15: H-Aib-QGTFTSD-Bip(OMe)-Bip(2F)] 0

Requested field: cAMP production with saturated glucagon peptide; test compound '1 nM'. Item: HSQGTFTSD[Bip(OMe)][Bip(2CF3)] (not fully specified (C-terminus); printed as HSQGTFTSD-Bip(OMe)-Bip(2CF3)) [Seq. ID. No. 8: HSQGTFTSD-Bip(OMe)-Bip(2CF3)] 0

Requested field: cAMP production with saturated glucagon peptide; test compound '1 nM'. Item: H[Aib]QGTFTSD[Bip(OMe)][Bip(2CF3)] [Seq. ID. No. 16: H-Aib-QGTFTSD-Bip(OMe)-Bip(2CF3)] 0
